// values below are reported solubility kinetic
# Particulars: buffer; pH 7.4; 200.0 µM
Assay readout: solubility kinetic (µg/mL)

> print(dat)
                                    compound  lt.gt.eq  reported.measurement
 1  CC(=O)c1cccc(NC(=O)CSc2nc(C3CC3)nc3ccccc23)c1         =                   0.9
 2  COc1ccc(C(C)=O)cc1CC(=O)Nc1ccc2c(c1)CCC2         =                   7.9
 3  Cc1cc(C(=O)NCc2nc(-c3ccccc3)no2)ccc1[N+](=O)[O-]         =                  18.9
 4  Nc1nccnc1C(=O)OCC(=O)NC1CCCc2ccccc21 (configuration not stated)         =                  44.5
 5  O=[N+]([O-])c1ccc([N+](=O)[O-])c(Nc2ccc(N3CCOCC3)cc2)c1         <                   0.2
 6  Cc1cccc(N(Cc2cc3ccccc3[nH]c2=O)C(=O)c2cccs2)c1         <                   0.4
 7  COc1ccc(Br)cc1CN(C)CC(=O)Nc1cccc(S(=O)(=O)N2CCCC2)c1.O=C(O)C(=O)O         =                  12.9
 8         CCOc1nc(C)ccc1-c1noc(-c2cccnc2)n1         =                    11
 9    CCOC(=O)C1CCN(Cc2cccc(Oc3ccccc3)c2)CC1         =                    17
10        CCN(CC)c1nc(N2CCOCC2)nc2ccccc12.Cl         =                  42.8
11            Cl.O=C(CN1CCOCC1)NCc1ccc(F)cc1         >                  43.3
12  C=CCn1c(=O)c(C(=O)NCc2ccc3c(c2)OCO3)c(O)c2ccccc21         =                   1.3
13             O=C1NC(=O)/C(=C/c2ccccc2Cl)N1         =                  17.8
14        COc1ccc(C(=O)/C=C/c2cccnc2)c(OC)c1         >                  40.4
15  O=C(/C=C/c1cccc([N+](=O)[O-])c1)N1CCN(Cc2ccccc2)CC1         =                  50.9
16  COc1ccc(C(=O)C[n+]2ccc(N(C)C)cc2)cc1.[Cl-]         >                    46
17              COc1cccc(Oc2cc(Cl)nc(N)n2)c1         =                    15
18        CC(C)Cc1ccc(S(=O)(=O)Nc2ccccn2)cc1         =                  31.7
19  Cc1ccc(OCC(O)CNC2CCCC2)c(C)c1.Cl (configuration not stated)         =                  41.3
20         CCOC(=O)N1CCN(Cc2ccc3ccccc3c2)CC1         =                  26.9
21    O=C(CNC(=O)c1ccccc1)NCc1nc2ccccc2[nH]1         =                  39.4
22  O=C(Nc1cccc(S(=O)(=O)N2CCCCC2)c1)c1ccccn1         =                   5.1
23  O=C(Cc1ccccc1[N+](=O)[O-])Nc1ccccc1C(=O)N1CCOCC1         >                  55.4
24  CC(C)Oc1ccc(CC2(CCc3ccncc3)C(=O)NC(=O)NC2=O)cc1         =                   7.7
25  CN(C)C(=O)Oc1ccc2c(c1)O/C(=C\c1ccc(Cl)cc1)C2=O         =                   0.9
26         O=C(NC(=S)Nc1cccnc1Cl)c1ccc(F)cc1         =                   6.4
27              OCc1nc2ccccc2n1CCCCOc1ccccc1         >                  44.5
28  CC(C)C(=O)Nc1c(-c2ccccc2)c(=O)c2ccccc2n1C         =                   9.2
29  Cc1ccc(S(N)(=O)=O)cc1NC(=O)C(c1ccccc1)c1ccccc1         =                    37
30      O=c1[nH]c(CSc2nc3ccccc3s2)nc2ccccc12         =                   1.5
31    CCc1nc(Nc2cccc(F)c2)c2oc3ccccc3c2n1.Cl         <                   0.2
32  O=C1C2C3C=CC(C4CC34)C2C(=O)N1c1cccc2ccccc12 (configuration not stated)         =                  42.7
33             COc1ccc(OCCCC(=O)Nc2nccs2)cc1         >                  43.9
34                   CSc1ncccc1C(=O)Nc1nccs1         >                  37.7
35  CN1C(=O)/C(=C/c2cn(CC(=O)N3CCCCC3)c3ccccc23)NC1=S         =                   2.7
36          O=C1NC(=Nc2ccccc2)S/C1=C\c1cccs1         =                     1
37    CCN(CC)C(=O)CN(C#N)c1nc(Cl)nc(N(C)C)n1         =                  41.3
38  COC(=O)C(Cc1ccc(O)cc1)N1Cc2ccccc2C1=O (configuration not stated)         >                  46.7
39        CCOc1ccc(S(=O)(=O)N2CCCCC2)c(C)c1C         =                   9.7
40  C=C(C)c1ccccc1NC(=O)CCN1C(=O)c2ccccc2S1(=O)=O         >                  55.6
41                  CCCCc1ccc(NC2=NCCCS2)cc1         =                  26.4
42  NC(=O)CC1C(=O)N(c2ccccc2)C(=S)N1NC(=O)c1ccccc1 (configuration not stated)         >                  55.3
43      CSc1nc2sc3c(c2c(=O)[nH]1)CC(C)(C)OC3         =                  13.9
44             CC[C@H](CO)NCCN[C@H](CC)CO.Cl         >                  41.6
45   Cc1cc(C)c(NC(=O)Nc2ccc3c(c2)OCO3)c(C)c1         =                   0.6
46  CC(=O)N1CCN(c2ccc(NC(=O)c3ccc(Cl)cc3)cc2)CC1         =                     1
47  NS(=O)(=O)c1ccc(N2CCN(S(=O)(=O)Cc3ccccc3)CC2)nc1         =                   4.1
